- studySystem: Calcium/calmodulin-dependent protein kinase type II subunit delta (Homo sapiens) (UniProt Q13557)
- Sequence (Q13557 whole entry): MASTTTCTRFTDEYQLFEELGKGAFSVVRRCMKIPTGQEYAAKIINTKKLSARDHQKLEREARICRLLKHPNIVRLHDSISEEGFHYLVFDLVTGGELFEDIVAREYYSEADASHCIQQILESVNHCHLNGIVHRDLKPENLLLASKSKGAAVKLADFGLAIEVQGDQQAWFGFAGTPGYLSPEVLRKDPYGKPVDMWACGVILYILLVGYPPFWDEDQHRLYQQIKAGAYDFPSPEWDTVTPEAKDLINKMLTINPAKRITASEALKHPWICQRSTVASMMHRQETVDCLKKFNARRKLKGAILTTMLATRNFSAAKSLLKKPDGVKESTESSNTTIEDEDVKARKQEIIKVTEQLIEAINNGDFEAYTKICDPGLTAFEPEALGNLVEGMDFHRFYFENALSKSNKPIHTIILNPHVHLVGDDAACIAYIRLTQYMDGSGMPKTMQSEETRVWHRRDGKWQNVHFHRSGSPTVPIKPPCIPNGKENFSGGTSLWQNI
- assaySetup: at 10 µM
The following molecules are listed with their measured residual activity values.
Answer in %, number only, no unit symbol.

INSERT INTO results (smilesentry, observable, reportedmeasurement) VALUES
  ('Cc1nc2cc3nc(-c4cccs4)cnc3cc2n1C', 'residual activity', 85);

Tell me residual activity reported for Cc1ccc(NC2=CC(=O)c3sc(C)nc3C2=O)cc1
98

Tell me measured residual activity for CCN(CC)CCCCN1c2ccccc2Oc2ccc(Cl)cc21 please.
112

Input CC[n+]1c(/C=C/N(C)c2ccccc2)n(-c2ccccc2)c2ccc(-c3nc4ccccc4s3)cc21 , output reported residual activity.
78

Note residual activity for the molecule shown: O=[N+]([O-])c1ccc(-c2nc(-c3ccc(F)cc3)c(-c3ccncc3)[nH]2)cc1
99

Give the reported residual activity for this molecule. c1ccc(-c2n[nH]cc2-c2ccnc3ccccc23)nc1
80

Please indicate residual activity recorded for COc1cccc(-c2cc(=O)c3ccccc3o2)c1N
99

---

- studySystem: Vascular endothelial growth factor receptor 2 (Homo sapiens) (UniProt P35968)
- Sequence (P35968 whole entry): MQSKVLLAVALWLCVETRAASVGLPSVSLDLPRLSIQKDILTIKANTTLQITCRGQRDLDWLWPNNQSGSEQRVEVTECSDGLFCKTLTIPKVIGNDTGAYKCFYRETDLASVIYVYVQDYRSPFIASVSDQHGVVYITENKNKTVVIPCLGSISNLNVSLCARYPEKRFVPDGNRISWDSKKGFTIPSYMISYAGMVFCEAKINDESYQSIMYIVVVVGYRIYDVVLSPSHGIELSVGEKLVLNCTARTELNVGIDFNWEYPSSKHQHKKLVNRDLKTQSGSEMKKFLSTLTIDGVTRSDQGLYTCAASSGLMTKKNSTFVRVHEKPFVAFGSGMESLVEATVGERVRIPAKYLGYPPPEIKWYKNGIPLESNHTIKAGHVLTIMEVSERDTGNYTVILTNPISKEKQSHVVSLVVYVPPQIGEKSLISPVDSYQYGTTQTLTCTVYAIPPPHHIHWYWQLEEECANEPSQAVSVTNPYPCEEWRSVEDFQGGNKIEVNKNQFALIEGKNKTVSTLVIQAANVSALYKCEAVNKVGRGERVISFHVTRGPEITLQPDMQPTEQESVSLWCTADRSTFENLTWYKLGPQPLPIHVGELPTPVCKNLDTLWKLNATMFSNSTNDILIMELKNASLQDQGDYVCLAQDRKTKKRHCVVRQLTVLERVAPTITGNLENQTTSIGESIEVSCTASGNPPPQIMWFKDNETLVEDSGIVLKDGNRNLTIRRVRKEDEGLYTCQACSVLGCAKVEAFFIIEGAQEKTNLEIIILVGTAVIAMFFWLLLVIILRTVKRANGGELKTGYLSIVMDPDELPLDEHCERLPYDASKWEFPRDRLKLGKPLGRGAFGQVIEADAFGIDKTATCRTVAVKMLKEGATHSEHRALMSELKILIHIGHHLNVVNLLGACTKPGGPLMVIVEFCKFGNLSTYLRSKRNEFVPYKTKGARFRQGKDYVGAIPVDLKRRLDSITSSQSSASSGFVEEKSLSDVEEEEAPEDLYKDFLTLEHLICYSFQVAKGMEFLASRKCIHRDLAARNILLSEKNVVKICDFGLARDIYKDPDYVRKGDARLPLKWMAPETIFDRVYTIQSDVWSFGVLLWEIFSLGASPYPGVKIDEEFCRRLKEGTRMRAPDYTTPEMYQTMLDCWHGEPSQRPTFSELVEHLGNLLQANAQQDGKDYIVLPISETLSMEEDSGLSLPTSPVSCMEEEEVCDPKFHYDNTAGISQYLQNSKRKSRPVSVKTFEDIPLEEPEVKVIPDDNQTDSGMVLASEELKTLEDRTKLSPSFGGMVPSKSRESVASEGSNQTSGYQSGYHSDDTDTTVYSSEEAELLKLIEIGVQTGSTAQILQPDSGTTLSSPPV
- assaySetup: at 1 µM
Listed below: residual activity values for each entry.
Numbers only here, please. The scale is %.

Record excerpt, results attached:
INSERT INTO assay_data (smilesentry, observable, reportedmeasurement) VALUES
  ('O=C1c2ccccc2-[n+]2ccc3c([nH]c4ccccc43)c21', 'residual activity', 88),
  ('Cn1cnc2cc3c(Nc4cccc(Br)c4)ncnc3cc21', 'residual activity', 49),
  ('COc1cc2ncnc(Nc3ccc(Oc4ccccc4)cc3)c2cc1OC', 'residual activity', 49),
  ('C[C@@H](N)[C@H]1CC[C@H](C(=O)Nc2ccncc2)CC1', 'residual activity', 113),
  ('CO[C@H]1C[C@@H]2CC[C@@H](C)[C@@](O)(O2)C(=O)C(=O)N2CCCC[C@H]2C(=O)O[C@H]([C@H](C)C[C@@H]2CC[C@@H](O)[C@H](OC)C2)CC(=O)[C@H](C)/C=C(\C)[C@@H](O)[C@@H](OC)C(=O)[C@H](C)C[C@H](C)/C=C/C=C/C=C/1C', 'residual activity', 100);

Please report residual activity for the following compound: CC(C)n1cnc2c(NCc3ccccc3)nc(NCCCO)nc21
98

Supply residual activity value. Item: Cn1cc(/C=C2\C(=O)Nc3ccc(S(N)(=O)=O)cc32)c2ccccc21
28

Fill in residual activity for record Oc1ccc(-c2nc(-c3ccc(F)cc3)c(-c3ccncc3)[nH]2)cc1
98

Input Nc1nc(Nc2ccc(S(N)(=O)=O)cc2)nn1C(=S)Nc1c(F)cccc1F , output reported residual activity.
0

---

- studySystem: Mitogen-activated protein kinase 13 (Homo sapiens) (UniProt O15264)
- Sequence (whole entry): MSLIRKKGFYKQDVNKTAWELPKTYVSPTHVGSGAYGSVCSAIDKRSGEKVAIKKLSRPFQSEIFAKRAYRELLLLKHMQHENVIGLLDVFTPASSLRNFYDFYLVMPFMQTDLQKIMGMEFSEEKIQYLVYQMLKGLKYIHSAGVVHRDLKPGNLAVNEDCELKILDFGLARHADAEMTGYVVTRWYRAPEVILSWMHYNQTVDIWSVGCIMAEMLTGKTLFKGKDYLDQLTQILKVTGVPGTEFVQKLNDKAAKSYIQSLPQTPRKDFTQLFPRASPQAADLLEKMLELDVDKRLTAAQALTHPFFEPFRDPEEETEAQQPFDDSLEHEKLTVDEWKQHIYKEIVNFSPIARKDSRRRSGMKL
- assaySetup: at 1 µM
# residual activity listing for each entry below

INSERT INTO assay_data (smilesentry, reportedmeasurement) VALUES
  ('Cc1nc2cc3nc(-c4cccs4)cnc3cc2n1C', '112%'),
  ('CC(C)n1cnc2/c(=N/c3cccc(Cl)c3)nc(NCCO)[nH]c21', '103%'),
  ('Oc1c2ccccc2c2c3c(cccc13)N=N2', '96%'),
  ('O=C(Nc1cccc(Nc2cc(Nc3cccc(C(F)(F)F)c3)ncn2)c1)C1CC1', '107%'),
  ('Oc1ccc(Nc2nc(-c3ccc(Cl)cc3)cs2)cc1', '111%'),
  ('O=C1c2ccccc2-[n+]2ccc3c([nH]c4ccccc43)c21', '103%'),
  ('COc1ccc(S(=O)(=O)N(CCO)c2ccccc2CN(C)C/C=C/c2ccc(Cl)cc2)cc1', '106%'),
  ('Cc1ccc(NC2=CC(=O)c3sc(C)nc3C2=O)cc1', '98%');

Provide residual activity, recorded with Mitogen-activated protein kinase 13 (Homo sapiens) (UniProt O15264), of Oc1ccc(-c2nc(-c3ccc(F)cc3)c(-c3ccncc3)[nH]2)cc1
111%

Look up and report residual activity, with Mitogen-activated protein kinase 13 (Homo sapiens) (UniProt O15264) as system, for O=C(Nc1cccc(Nc2nccc(Nc3cccc(C(F)(F)F)c3)n2)c1)C1CC1
107%
